target.under.test: recombinant human SYK360-635 (Spleen Tyrosine Kinase) (Homo sapiens (Human), UniProt P43405)
test.description: SYK kinase assay (33P ATP incorporation into biotinylated peptide)
Assay type: biochemical
measurement.parameters: purified truncated SYK aa 360-635, 20 μM ATP; read-out: Syk_IC50
Attribute: IC50
measurement.type: IC50 (µM)

                   compound_structure_string  measurement_type  obs_value
 0       Cc1cc(C)nc(Nc2cc(NCCN)nnc2C(N)=O)n1              IC50       3.98
 1  Cc1cccc(Nc2cc(Oc3ccccc3C3CC3)nnc2C(N)=O)n1              IC50       2.18
 2     CC(C)Oc1cccc(Nc2cc(NCCN)nnc2C(N)=O)n1              IC50     0.0124
 3          Cc1cccc(Nc2nc(CCCN)ncc2C(N)=O)c1              IC50       2.54
 4   CC(C)(C)c1cccc(Nc2cc(NCCN)nnc2C(N)=O)n1              IC50      0.013
 5     NC(=O)c1n[nH]c(=O)cc1Nc1cccc(C2CC2)n1              IC50      0.225
 6  Cc1cccc(Nc2cc(Oc3cccc(C(C)(C)N)c3)nnc2C(N)=O)n1              IC50       2.24
 7  CCc1ccccc1Oc1cc(Nc2cccc(C)n2)c(C(N)=O)nn1              IC50      0.473
 8  Cc1cccc(Nc2cc(Oc3cccc(C#N)c3)nnc2C(N)=O)n1              IC50      0.965
 9  Cc1cccc(Nc2cc(Oc3ccccc3C#N)nnc2C(N)=O)n1              IC50      0.385
10    COc1nc(Nc2cc(NCCN)nnc2C(N)=O)ccc1C(C)C              IC50    0.00925
11  Cc1cccc(Nc2cc(Oc3ccc(Cl)cc3C#N)nnc2C(N)=O)n1              IC50       1.41
12    Cc1cccc(Nc2cc(Oc3ccccc3C)nnc2C(N)=O)n1              IC50      0.373
13  Cc1cccc(Nc2cc(N[C@@H]3CCCC[C@@H]3N)ccc2C(N)=O)n1              IC50     0.0418
